Tested on: M. aurum
test_name: Microdilution broth resazurin assay, MIC
Assay type: cell-based, Mycolicibacterium aurum
protocol_conditions: Mycolicibacterium aurum, read-out: Antimycobacterial Activity MIC M. aurum
quantity_name: MIC

Example results:
>  <molecule>
Cc1ccc(/C=N/n2c(C)nc3cc(Cl)ccc3c2=O)cc1 [Compound 48]

>  <MIC>
≥ 31.2 µg/mL

$$$$
>  <molecule>
Cc1nc2cc(Cl)ccc2c(=O)n1/N=C/c1cccc([N+](=O)[O-])c1 [Compound 27]

>  <MIC>
≥ 62.5 µg/mL

$$$$
>  <molecule>
COc1ccc(Cn2c(C)nc3cc(Cl)ccc3c2=O)cc1 [Compound 17]

>  <MIC>
15.6 µg/mL

$$$$
>  <molecule>
COc1cc(/C=N/n2c(C)nc3cc(Cl)ccc3c2=O)ccc1O [Compound 34]

>  <MIC>
≥ 62.5 µg/mL

$$$$
>  <molecule>
COc1ccc(Cn2c(C)nc3cc(Cl)ccc3c2=O)c(OC)c1 [Compound 15]

>  <MIC>
≥ 125 µg/mL

$$$$
>  <molecule>
COc1cccc(Cn2c(C)nc3cc(Cl)ccc3c2=O)c1 [Compound 16]

>  <MIC>
≥ 125 µg/mL

$$$$

Would you mind listing MIC for each of the following molecules?
1. COc1ccccc1/C=N/n1c(C)nc2cc(Cl)ccc2c1=O [Compound 38]
2. COc1cccc(/C=N/n2c(C)nc3cc(Cl)ccc3c2=O)c1 [Compound 39]
3. Cc1nc2cc(Cl)ccc2c(=O)n1/N=C/c1ccc([N+](=O)[O-])cc1 [Compound 28]

1. ≥ 62.5 µg/mL
2. ≥ 62.5 µg/mL
3. ≥ 31.2 µg/mL

Cited source for all entries: paper PMC12221116
